# experiment summary: yeast display, Sf9 membrane polyspecificity reagent, FACS + sequencing; frameworks hold sequencing errors

polymer sequence	polyreactivity (PSR sort gate)
QVQLVESGGGLVQAGGSLRLSCAASGRIFNWYAMGWYRQAPGKERELVARISSGDITSYADSVKGRFTISRDNAKNTVYLQMNSLKPEDTAVYYCAARQWFLYDYWGHGTQVTVSS	low polyreactivity
QVQLVESGGGLVQAGGSLRLSCAASGLTFARTAKGWYRQAPGKERALVAAISSRGGSTYYADSVKGRFTISRDIANNTVYLQMNSLKPEDTAVYYCATSQVLRRDRYDYWGQGTQVTVSS	high polyreactivity
QVQLVESGGGLVQAGGSLRLSCAASGRIFQPYAMGWYRQAPGKERELVAAITRRAGSTYYADSVKGRFTISRDNAKNTVYLQMNSLKPEDTAVYYCAARGLYWAYEMEYWGQGTQVTVSS	low polyreactivity
QVQLVESGGGLVQAGGSLRLSCAASGFIFDYYAMGWYRQAPGKERELVAAITSRSGSTYYADSVKGRFTISRDNAKNTVYLQMNSLKPEDTAVYYCAAVYPDYSSARYDYWGQGTQVTVSS	high polyreactivity
QVQLVESGGGLVQAGGSLRLSCAASGFTFRWYAMGWYRQAPGKERELVAAISVSGGSTSYADSVKGRFTISRDNAKNTVYLQMNSLKPEDTAVYYCAAVRWAGYVSDYGYWGQGTQVTVSS	high polyreactivity

###

# experiment summary: yeast display, Sf9 membrane polyspecificity reagent, FACS + sequencing; frameworks hold sequencing errors
property label: polyreactivity (PSR sort gate)

polymer sequence	data value
QVQLVESGGGLVQAGGSLRLSSAATGRTFASYAMGWYRPAPGKERELVAVITRGVRTYYADSVKGRFTISRDNAKNTVYLEMNSLKPEDTAVYYCAKERYNANYDTSLYDYWGQGTQVTVSS	low polyreactivity
QVQLVESGGGLVQAGGSLRLSCAASGSIFGYYAMGWYRQAPGTERELVAAITTGGSTSYADSVKGRFTISRDNAKNTVYLQMNSLKPEDTAVYYCAARPHHGWLEYGSAGLGYWGQGTQVTVSS	low polyreactivity
QVQLVESGGGLVQAGGSLRLSCAASGFTFRKNAMGWYRQAPGKERELVAAISSGGGRTYYADSVKGRFTISRDNAKNTVYLQMNSLKPEDTAVYYCNAVRVVRLTFQDWISMDYWGQGTQVTVSS	high polyreactivity
QVQLVESVGGLVQAGGSLRLSCAASGGIFDTYVMGWYRQAPGKERELVAAISSSGSTTYADSVKGRFTISRDNAKNTVYLQMNSLKPEDTAVYYCNADYSTIWRYDYWGQGTQVTVSS	low polyreactivity
QVQLVESGGGLVQAGGSLRLSCAASGRIFRAYAMGWYRQAPGKERELVAAISSRGGSTYYADSVKGRFTISRDNAKNTVYLQMNSLKPEDTAVYYCNVDTPFREGSYDYWGQGTQVSVSS	high polyreactivity
QVQLVESGGGLVQAGGSLRLSCAASGRIFGKYVMGWYRQAPGKERELVAAISRSGGSTSYADSVKGRFTISRDNAKNTVYLQMNSLKPEDTEVYYCAAGFLSGWWFAYDYWGQGTQVTVSS	high polyreactivity
QVQLVESGGGLVQAGGSLRLSCAASGSIFWTIAMGWYRQSPGKERELVASIHSSDASTDYADSVKGRFTISRDNAKNTVYLKMNSLKPEDTAVYYCNAAGAYPYYSEDYYWGQGTQVTVSS	low polyreactivity
QVQLVESGGGLVQAGGSLRLSCAASGFTFRYNTMGWYRQAPGKERELVAAISSSGGRTYYADSVKGRFTISRDNAKNTVYLQMNSLKPEDTAVYYCNAVTRESGGFDYWGQGTQVTVSS	high polyreactivity
QVHVVESGGGLVQAGGSLRLSCAASGFTFGNNAIGWYRQAPGKERELVAGISRTGGRTYYADSVKGRFTISRDNAMNTVFLPMNSLKPEDTAVFYCAKAFRGHYWGQGTQVNVSS	high polyreactivity
QVQLVESAGGLVQAGGSLRLSCAASGSIFPLYAMGWYRQAPGKERELVAAISYSGGRTYYADSVKGRFTISRDNAKNTVYLQMNSLKPEDTAVYYCNTRQRVIDDYWGQGTQVTVSS	high polyreactivity
QVQLVESGGGLVQAGGSLRLSCADSGRIFFDYAMGWYRQAPGKERELVAAISYRGGDTYYADSVKGRFTISRDNAKNTVYLQMNSLIPEDTAVYYCAATGGYYEYWGQGTQVTVSS	low polyreactivity

###

# experiment summary: yeast display, Sf9 membrane polyspecificity reagent, FACS + sequencing; frameworks hold sequencing errors

polymer sequence	polyreactivity (PSR sort gate)
QVQLVESGGGLVQAGGSLRLSCAASGSIFRHNVMGWYRQAPGKERELVAAISGGGGRTYYADSVKGRFTISRDNAKNTVYLQMNSLKPEDTAVYYCNAYVGLSEGDYWGQGTQVTVSS	high polyreactivity
QVQLVESGGGLVQAGGSLRLSCAASGSTFYSYAMGWYRQAPGKERELVAAISWDGGLTYYADSVKGRFTISRDNAKNTVYLQMNSLKPEDNAVYYCAAAYPTYRHYYWGQGTQVTVSS	low polyreactivity
QVQLVESGGGLVQAGGSLRLSCAASGRILYTYAMGWYRQAPGKERELVASIRSSGGITYYADSVKGRFTISRDNAKNTVYLQMNSLKPEDTAVYYCNAPYLVGTGPNGEYDYWGQGTEVTVSS	high polyreactivity
QVQLVESGGGLVKAGGSLRLSCAPSGSSFYYAMGWYRQAPGKERELVAAINSGGSTNYADSVKGRFTISRDNAKNTVYLQMNSLKPEDTAVYYCAADLYGYWWSFDYDYWGQGTQVTVSS	low polyreactivity
QVQLVESGGGLVQAGGSLRLSCAASGFILRYYVMGWYRQAPGKERELVAAISSSGGRTYYADSVKGRFTISRDNAKNTVYLQMNSLKPEDTGVYYCATSTYAYRRKSYFYTRPRFGYWGQGYQVTVSS	high polyreactivity
QVQLVESGRGLVQAGGSLRLSCAPSGLNFVRYAMGWYRQAPGKERELVARITSRGTSTYYADSVKGRFTISRDNAKNTVYLQMNSLKPEDTAVYYCIKFRSFRDKTRYDYWGQGTQVTVSS	low polyreactivity
QVQLVESGGGLVQAGGSHRLSCAASGFIFYVYAMGWYRQAPGKERELVATINGRRSRTYYADSVKGRFTISRDNAKNTVYLQMNSLKPEDTAVYYCAAVAWVLRYGRGDYWGQGTQVTVSL	high polyreactivity
QVQLVESGGGLVQSGGSLRLSCAASGIIFSRNAMGWYRQAPGKERELVAGITSSGGTTYYADSVKGRFTISRDNAKNTVYLQMNSLKPEDTAVYYCAAYSTQNYSYRRYYYWGQGTQVTVSS	high polyreactivity
QVQLVESGGGLVQAGGSLRLSCAASGSIFLDYAMGWYRQAPGKERELVAGITISGGSTYYADSVKGRFTISRDNAKNTVYLQMNSLKPEDTSVYYCAKVAPRSSSSQEYYYWGQGTQVTVSS	low polyreactivity
QVQLVESVGGLVQAGGSLRLSCAASGRILYLNVMGWYRQAPGKERELVASITVSGGITYYADSVKGRFTISRDNAKNTVYLQMNSLKPEDTAVYYCAVDAYPPFFYFTSVWFSYDYWGQGTQVTVSS	low polyreactivity
QVQLVESGGGLVQAGGSLRLSCAASGSIFSVNTKGWYRQAPGKERELVATIRTGDSTNYADSVKGLFTISRDNAKNTVYLQMNSLKPEDTAFYYCAAEWSSLNFDYWGQGTQVTVSS	low polyreactivity

###

# experiment summary: yeast display, Sf9 membrane polyspecificity reagent, FACS + sequencing; frameworks hold sequencing errors
property label: polyreactivity (PSR sort gate)

polymer sequence	property label	data value
QVQLVESGGGLVQAGGSLRLSCAASGGIFYGNVMGWYRHAPGKERELVADITSVGSTYYADSVKGRFTISRDNAKNTVYLQMNSLKPEDTAVYYCAAETYLVFSTWYGYDYCGQGTQVTVSS	polyreactivity (PSR sort gate)	low polyreactivity
QVHLVESGGGLVQAGGSLRLSCAASGLIFFKYAMGWYRQETGKESELVAANSSSGGRTSYADSVKGRFTISRDNAKNTVYLQMNSEKPEDTAVYYCNVKPSASYIRYNYRYYYWGQGTHVTVSS	polyreactivity (PSR sort gate)	high polyreactivity
QVQLVETGGGLVHAGGSLRLSCAASGSIFYAYDMGWYRQAPGKERELVAAINWSGDSTYYADSVKGRVTISRDNANNTVYLQMNSLKPEDTAVYYCAAVSGSGDSGEYDYWGQGTQVTVSS	polyreactivity (PSR sort gate)	low polyreactivity
QVQLVESGGGLVQAGGSLRLSCAASGSIFQINAMGWYRPAPGKERECVASITYSGGSTYYADSVKGRFTISRDNAKNTVYLQMNSLKPEDTAVYYCAAESYWGYDYWGQGTQVTVSS	polyreactivity (PSR sort gate)	high polyreactivity
QVQLVESAGGLVQAGGSLRLSCAASGRIFYLYAMGWYRQAPGQERELVARITSGSGTYYADSVKGRFTISRDNAKNTVYLQMNSLKPEDTGVYYCAAREPGVCFVGHYTGLDYWGQGTQVTVSS	polyreactivity (PSR sort gate)	low polyreactivity
QVQLVESGGGLVQAGGSLRLSCAASGLIFQYYVMGWYRQAPGKERQLVAAISARGGGTYYADSVKGRFTISRDNAKNTVYLQMNSLKPEDTAVYYCAADPVYAGPGYDYWGQGTQVTVSS	polyreactivity (PSR sort gate)	high polyreactivity
QVQLVESGGGLVQAGGSLRLSCAASGFTFKAYAMGWYRQAPGKERELVAAITKSGGRTFYADSVKGRFTISRDTAKNTVYFQMNSLKPEDTAVYYCAASYTVYYWGQGTQVTVSS	polyreactivity (PSR sort gate)	high polyreactivity
QVQLVESGGGLVQAGGSLRLSCAASGITFQNYAMGWYRQAPGKERELVAGISYSGGSTYYADSVKGRFTISRDHAKNTVFLLMNSLKPEDTAVYDCAATRWYSYRRYYYWGQGTQVTVSS	polyreactivity (PSR sort gate)	high polyreactivity
QVQLVESGGGLVQAGGSLRLSCAASGSIFGAYAMRWYRQAPGKERELVAAISYGGGNTYYADSVKGRFTISRDNAKNTVYLQMNSLKPEDTAFYYCNALFPRVSGSTYRYNYWGQGTQVTVSS	polyreactivity (PSR sort gate)	high polyreactivity
QVQLVESGGGLVQAGGSLRLSCAACGFIFYKNAMGWYRQAPGKERELFAAISGGGGSTSYADSVKGRFTISRDNAKNTVYLQMNSLKPEDTAVYYCATYSFRRTGWRYDYWGQGTQVTVSS	polyreactivity (PSR sort gate)	high polyreactivity
QVQLVESGGGLVQAGGSLRLSCAASGRTFYLYGMGWYRQAPGKERELVAAITITDSTNYADSVKGRFTISRDNAKNTVYLQMNSLKPEDTAVYYCAKRRYYSTPRWGSSTYDYWGQGTQVTVSS	polyreactivity (PSR sort gate)	low polyreactivity
